Source: paper PMC11356900

Each entry below carries its measured MIC, system: Escherichia coli ATCC 25922.

Answered cases to consult:
- COMPOUND_SMILES: "O=C(N/N=C/c1cc(O)ccc1O)c1ccc(I)cc1"
  MEASURED_RESULT: "> 1000 µg/mL"
- COMPOUND_SMILES: "O=C(N/N=C/c1cc(Cl)cc(Cl)c1O)c1ccc(I)cc1"
  MEASURED_RESULT: "> 1000 µg/mL"
- COMPOUND_SMILES: "O=C(N/N=C/c1cc(Cl)cc(I)c1O)c1ccc(I)cc1"
  MEASURED_RESULT: "500 µg/mL"
- COMPOUND_SMILES: "O=C(N/N=C/c1ccccc1O)c1ccc(I)cc1"
  MEASURED_RESULT: "> 1000 µg/mL"
- COMPOUND_SMILES: "O=C(N/N=C/c1cc(Cl)cc(I)c1O)c1cccc(I)c1"
  MEASURED_RESULT: "1000 µg/mL"

Now consider the entry below.
Query block: // map O=C(N/N=C/c1cc(Br)cc(Br)c1O)c1cccc(I)c1 to recorded MIC (system: Escherichia coli ATCC 25922)
Result block: > 1000 µg/mL
